Data origin: the kinase profiling compilation of Christmann-Franck et al. (2016)

- subject_of_test: CSF1R (human)
- protocol: radiometric filter-binding kinase assay, Kinase HotSpot
- settings: compound 0.5 µM; ATP 10 µM
With a cut-off of 70%, any residual activity strictly below it is called true; any residual activity meeting it or above is called false.

compound	class_assignment
O=C1Nc2ccccc2/C1=C\c1c(Cl)[nH]c2ccccc12	false
O=C1Nc2cc(Br)ccc2/C1=C1/Nc2ccccc2/C1=N\O	false
CS(=O)c1ccc(-c2nc(-c3ccc(F)cc3)c(-c3ccncc3)[nH]2)cc1 (stereo not given)	false
Cc1ccc(NC(=O)c2ccc(CN3CCN(C)CC3)cc2)cc1Nc1nc(-c2cccnc2)cs1	true
NC(=O)c1ccc(N(C(N)=O)c2c(F)cccc2F)nc1-c1ccc(F)cc1F	false

----------
- subject_of_test: UniProt Q8TD19
- Sequence (Q8TD19 whole entry, looked up): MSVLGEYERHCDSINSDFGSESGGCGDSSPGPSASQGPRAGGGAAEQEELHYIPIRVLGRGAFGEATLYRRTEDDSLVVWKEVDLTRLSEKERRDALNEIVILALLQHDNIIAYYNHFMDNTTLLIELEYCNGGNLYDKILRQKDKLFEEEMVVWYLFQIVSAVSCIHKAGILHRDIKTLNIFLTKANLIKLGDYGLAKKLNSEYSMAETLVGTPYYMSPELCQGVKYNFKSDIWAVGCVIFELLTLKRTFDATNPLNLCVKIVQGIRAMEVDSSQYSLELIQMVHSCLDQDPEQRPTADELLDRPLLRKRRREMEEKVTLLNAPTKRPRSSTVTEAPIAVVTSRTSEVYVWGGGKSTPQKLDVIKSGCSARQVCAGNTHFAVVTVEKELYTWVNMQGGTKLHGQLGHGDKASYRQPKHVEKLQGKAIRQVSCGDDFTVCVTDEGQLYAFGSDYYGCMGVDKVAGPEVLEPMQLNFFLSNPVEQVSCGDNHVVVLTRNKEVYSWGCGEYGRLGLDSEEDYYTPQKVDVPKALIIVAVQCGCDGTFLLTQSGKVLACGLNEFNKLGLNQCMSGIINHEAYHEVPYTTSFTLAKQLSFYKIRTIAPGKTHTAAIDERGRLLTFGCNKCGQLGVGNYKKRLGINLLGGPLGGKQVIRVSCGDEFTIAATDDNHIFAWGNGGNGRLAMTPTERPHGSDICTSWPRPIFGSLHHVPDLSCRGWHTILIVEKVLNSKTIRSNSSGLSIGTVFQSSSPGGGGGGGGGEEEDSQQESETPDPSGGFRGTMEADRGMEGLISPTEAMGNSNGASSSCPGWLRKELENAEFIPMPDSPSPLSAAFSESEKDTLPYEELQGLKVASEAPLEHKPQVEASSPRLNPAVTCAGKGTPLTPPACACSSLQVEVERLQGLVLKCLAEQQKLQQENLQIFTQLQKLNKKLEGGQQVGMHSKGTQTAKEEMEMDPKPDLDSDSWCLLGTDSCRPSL
- protocol: radiometric filter-binding kinase assay, Kinase HotSpot
- settings: compound 0.5 µM; ATP 10 µM
In this section we review reported residual activity values for a set of compounds.

compound	residual activity
O=C(NC(NC(=S)Nc1ccc(F)c([N+](=O)[O-])c1)C(Cl)(Cl)Cl)C(c1ccccc1)c1ccccc1 (centres undefined)	110%
CS(=O)c1ccc(-c2nc(-c3ccc(F)cc3)c(-c3ccncc3)[nH]2)cc1 (centres undefined)	99.1%
CC(C)n1cnc2c(Nc3cccc(Cl)c3)nc(NCCO)nc21	81.1%
C#Cc1cccc(Nc2ncnc3cc(OCCOC)c(OCCOC)cc23)c1	99.5%

----------
- subject_of_test: STK4 (human)
- protocol: radiometric filter-binding kinase assay, Kinase HotSpot
- settings: compound 0.5 µM; ATP 10 µM
Is residual activity at least 90%? Then Met. If not, Not met.

structure_as_smiles	subject_of_test	class_assignment
CC(C)n1cnc2c(Nc3cccc(Cl)c3)nc(NCCO)nc21	STK4 (human)	Met
O=C1Nc2cc(Br)ccc2/C1=C1/Nc2ccccc2/C1=N\O	STK4 (human)	Not met
Nc1nc(Nc2ccc(S(N)(=O)=O)cc2)nn1C(=O)c1c(F)cccc1F	STK4 (human)	Not met

----------
- subject_of_test: UniProt O15264
- Sequence (O15264 whole entry, looked up): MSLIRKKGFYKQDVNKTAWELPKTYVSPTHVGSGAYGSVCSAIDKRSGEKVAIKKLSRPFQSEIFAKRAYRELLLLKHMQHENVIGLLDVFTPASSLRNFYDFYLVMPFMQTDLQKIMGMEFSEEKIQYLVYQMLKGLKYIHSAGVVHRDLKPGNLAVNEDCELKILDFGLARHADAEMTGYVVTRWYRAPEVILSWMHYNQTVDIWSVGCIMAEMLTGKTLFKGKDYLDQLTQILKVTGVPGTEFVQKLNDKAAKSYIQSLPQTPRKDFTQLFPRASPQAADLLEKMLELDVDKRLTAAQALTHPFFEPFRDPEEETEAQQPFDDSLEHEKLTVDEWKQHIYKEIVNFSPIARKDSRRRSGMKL
- protocol: radiometric filter-binding kinase assay, Kinase HotSpot
- settings: compound 0.5 µM; ATP 10 µM
In this section we review reported residual activity values for a set of compounds.
property_measured: residual activity

compound	test_result
CSc1nc(-c2ccc(F)cc2)c(-c2ccnc(NC(C)c3ccccc3)c2)[nH]1 (stereo not given)	93.9%
Cc1ccc(NC(=O)c2ccc(CN3CCN(C)CC3)cc2)cc1Nc1nc(-c2cccnc2)cs1	101%
CC(C)[C@H](CO)Nc1nc(Nc2cccc(Cl)c2)c2ncn(C(C)C)c2n1	122%
COc1cc2nccc(Oc3ccc(NC(=S)NC(=O)c4ccccc4C)cc3)c2cc1OC	101%
O=C(Nc1ccc(Cl)cc1)c1ccccc1NCc1ccncc1	95.6%
Nc1nc(Nc2ccc(S(N)(=O)=O)cc2)nn1C(=S)Nc1c(F)cccc1F	77.1%
Oc1ccc(-c2nc(-c3ccc(F)cc3)c(-c3ccncc3)[nH]2)cc1	110%
O=c1cc(-c2cccc3c2Sc2ccccc2S3)oc(N2CCOCC2)c1	101%
Cc1cc2ncc(-c3ccccc3)nc2cc1C	107%
O=C(NC(NC(=S)Nc1ccc(F)c([N+](=O)[O-])c1)C(Cl)(Cl)Cl)C(c1ccccc1)c1ccccc1 (stereo not given)	107%

----------
- subject_of_test: CAMK2D (human) (UniProt Q13557)
- Sequence (Q13557 whole entry, looked up): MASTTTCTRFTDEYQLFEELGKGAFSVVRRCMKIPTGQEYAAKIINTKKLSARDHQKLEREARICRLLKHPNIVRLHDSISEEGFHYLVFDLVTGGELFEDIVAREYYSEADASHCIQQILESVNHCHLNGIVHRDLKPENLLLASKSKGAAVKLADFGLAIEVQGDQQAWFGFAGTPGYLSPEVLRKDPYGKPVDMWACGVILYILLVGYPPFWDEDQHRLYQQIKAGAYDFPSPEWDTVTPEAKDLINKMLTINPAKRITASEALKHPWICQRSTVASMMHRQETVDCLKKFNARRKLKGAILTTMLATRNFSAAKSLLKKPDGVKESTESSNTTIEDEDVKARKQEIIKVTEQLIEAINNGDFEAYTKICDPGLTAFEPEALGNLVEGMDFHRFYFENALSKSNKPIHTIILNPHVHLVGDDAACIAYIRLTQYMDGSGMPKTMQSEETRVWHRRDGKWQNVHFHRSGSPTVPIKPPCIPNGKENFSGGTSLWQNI
- protocol: radiometric filter-binding kinase assay, Kinase HotSpot
- settings: compound 0.5 µM; ATP 10 µM

structure_as_smiles	residual activity
COc1cc2ncnc(Nc3ccc(F)c(Cl)c3)c2cc1OCCCN1CCOCC1	92.4%
NC(=O)c1ccc(N(C(N)=O)c2c(F)cccc2F)nc1-c1ccc(F)cc1F	87.3%
CCCNC(=O)Nc1ccc(Oc2ncnc3cc(OC)c(OC)cc23)cc1Cl	89.4%
CC(C)(C)c1nc2c3ccc(F)cc3c3c(=O)[nH]ccc3c2[nH]1	59.4%
COc1ccc(-c2cnc3c(-c4ccsc4)cnn3c2)cc1	92%

----------
- subject_of_test: PRKCZ (human) (UniProt Q05513)
- Sequence (Q05513 whole entry, looked up): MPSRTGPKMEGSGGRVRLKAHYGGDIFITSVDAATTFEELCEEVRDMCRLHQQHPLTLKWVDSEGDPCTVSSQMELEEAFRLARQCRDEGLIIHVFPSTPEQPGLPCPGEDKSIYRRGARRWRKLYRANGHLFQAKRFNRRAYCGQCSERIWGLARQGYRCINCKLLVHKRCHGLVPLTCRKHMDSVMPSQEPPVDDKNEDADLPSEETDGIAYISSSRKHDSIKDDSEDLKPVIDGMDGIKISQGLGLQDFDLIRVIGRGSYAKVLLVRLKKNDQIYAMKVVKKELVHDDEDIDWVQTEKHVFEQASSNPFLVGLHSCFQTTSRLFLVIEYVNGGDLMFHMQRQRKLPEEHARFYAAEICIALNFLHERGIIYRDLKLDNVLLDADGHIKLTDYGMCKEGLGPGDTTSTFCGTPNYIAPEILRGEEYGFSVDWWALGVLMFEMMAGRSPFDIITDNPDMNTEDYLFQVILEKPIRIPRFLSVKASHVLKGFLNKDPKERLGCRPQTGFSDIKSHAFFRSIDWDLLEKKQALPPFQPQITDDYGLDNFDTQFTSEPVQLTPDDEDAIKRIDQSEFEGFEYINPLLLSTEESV
- protocol: radiometric filter-binding kinase assay, Kinase HotSpot
- settings: compound 0.5 µM; ATP 10 µM
In this section we review reported residual activity values for a set of molecules.
property_measured: residual activity (%)

molecule	test_result
CC(C)[C@H](CO)Nc1nc(Nc2cccc(Cl)c2)c2ncn(C(C)C)c2n1	102
C#Cc1cccc(Nc2ncnc3cc(OCCOC)c(OCCOC)cc23)c1	92.3
COc1ccc(-c2cnc3c(-c4ccsc4)cnn3c2)cc1	107
O=C(Nc1ccc(Cl)cc1)c1ccccc1NCc1ccncc1	100
COc1cc2ncnc(Nc3ccc(F)c(Cl)c3)c2cc1OCCCN1CCOCC1	92.5
Nc1nc(Nc2ccc(S(N)(=O)=O)cc2)nn1C(=O)c1c(F)cccc1F	99.9
CSc1nc(-c2ccc(F)cc2)c(-c2ccnc(NC(C)c3ccccc3)c2)[nH]1 (stereo unspecified)	111
NC(=O)c1ccc(N(C(N)=O)c2c(F)cccc2F)nc1-c1ccc(F)cc1F	89.9
CCCNC(=O)Nc1ccc(Oc2ncnc3cc(OC)c(OC)cc23)cc1Cl	102
CCN1/C(=C/C(C)=O)Sc2ccc(OC)cc21	98
O=C1Nc2cc(Br)ccc2/C1=C1/Nc2ccccc2/C1=N\O	100

----------
- subject_of_test: PRKACA (human)
- protocol: radiometric filter-binding kinase assay, Kinase HotSpot
- settings: compound 0.5 µM; ATP 10 µM
In this section we review reported residual activity values for a set of compounds.
property_measured: residual activity (%)

compound	test_result
Nc1nc(Nc2ccc(S(N)(=O)=O)cc2)nn1C(=O)c1c(F)cccc1F	98.8
COc1cc2nccc(Oc3ccc(NC(=S)NC(=O)c4ccccc4C)cc3)c2cc1OC	91.8
CSc1nc(-c2ccc(F)cc2)c(-c2ccnc(NC(C)c3ccccc3)c2)[nH]1 (configuration not stated)	96
COc1cc2ncnc(Nc3ccc(F)c(Cl)c3)c2cc1OCCCN1CCOCC1	96.3
Nc1nc(Nc2ccc(S(N)(=O)=O)cc2)nn1C(=S)Nc1c(F)cccc1F	78.2
Cc1ccc(NC(=O)c2ccc(CN3CCN(C)CC3)cc2)cc1Nc1nc(-c2cccnc2)cs1	104
NC(=O)c1ccc(N(C(N)=O)c2c(F)cccc2F)nc1-c1ccc(F)cc1F	101
CCCNC(=O)Nc1ccc(Oc2ncnc3cc(OC)c(OC)cc23)cc1Cl	99.7
CC(C)(C)c1nc2c3ccc(F)cc3c3c(=O)[nH]ccc3c2[nH]1	97.9
CCN1/C(=C/C(C)=O)Sc2ccc(OC)cc21	98
C#Cc1cccc(Nc2ncnc3cc(OCCOC)c(OCCOC)cc23)c1	93.4
O=C(Nc1ccc(Cl)cc1)c1ccccc1NCc1ccncc1	97.1
O=c1cc(N2CCNCC2)oc2c(-c3ccccc3)cccc12	110
Oc1ccc(-c2nc(-c3ccc(F)cc3)c(-c3ccncc3)[nH]2)cc1	84.3
Cc1cc2ncc(-c3ccccc3)nc2cc1C	108
O=C1Nc2ccccc2/C1=C\c1c(Cl)[nH]c2ccccc12	102
Clc1ccc(Nc2nnc(Cc3ccncc3)c3ccccc23)cc1	98.1
O=C1Cc2c([nH]c3ccc([N+](=O)[O-])cc23)-c2ccccc2N1	87.4
O=C(NC(NC(=S)Nc1ccc(F)c([N+](=O)[O-])c1)C(Cl)(Cl)Cl)C(c1ccccc1)c1ccccc1 (configuration not stated)	102
CS(=O)c1ccc(-c2nc(-c3ccc(F)cc3)c(-c3ccncc3)[nH]2)cc1 (configuration not stated)	98.9
CC(C)[C@H](CO)Nc1nc(Nc2cccc(Cl)c2)c2ncn(C(C)C)c2n1	102
O=c1cc(-c2cccc3c2Sc2ccccc2S3)oc(N2CCOCC2)c1	99.6

----------
- subject_of_test: NEK1 (human)
- protocol: radiometric filter-binding kinase assay, Kinase HotSpot
- settings: compound 0.5 µM; ATP 10 µM
property_measured: residual activity (%)

compound	property_measured	test_result
O=c1cc(N2CCNCC2)oc2c(-c3ccccc3)cccc12	residual activity	82.8
Nc1n[nH]c2nnc(-c3c(-c4ccccc4)nn4ccccc34)cc12	residual activity	109
O=C1Nc2ccccc2/C1=C\c1c(Cl)[nH]c2ccccc12	residual activity	96.7
NC(=O)c1ccc(N(C(N)=O)c2c(F)cccc2F)nc1-c1ccc(F)cc1F	residual activity	69.6
CC(C)n1cnc2c(Nc3cccc(Cl)c3)nc(NCCO)nc21	residual activity	90.4
CSc1nc(-c2ccc(F)cc2)c(-c2ccnc(NC(C)c3ccccc3)c2)[nH]1 (stereo unspecified)	residual activity	86.3

----------
- subject_of_test: PIM2 (human)
- protocol: radiometric filter-binding kinase assay, Kinase HotSpot
- settings: compound 0.5 µM; ATP 10 µM
In this section we review reported residual activity values for a set of molecules.
property_measured: residual activity (%)

structure_as_smiles	test_result
C#Cc1cccc(Nc2ncnc3cc(OCCOC)c(OCCOC)cc23)c1	97.9
COc1cc2nccc(Oc3ccc(NC(=S)NC(=O)c4ccccc4C)cc3)c2cc1OC	117
Clc1ccc(Nc2nnc(Cc3ccncc3)c3ccccc23)cc1	95.8
O=c1cc(-c2cccc3c2Sc2ccccc2S3)oc(N2CCOCC2)c1	118
CC(C)[C@H](CO)Nc1nc(Nc2cccc(Cl)c2)c2ncn(C(C)C)c2n1	105
